target: recombinant soluble homotrimeric HA, A/chicken/Vietnam/NCVD-016/08 (H5N1) (influenza A virus A/chicken/Vietnam/NCVD-016/2008 (H5N1)); assay: microarray, trimeric HA, transfection supernatant; details: remark: other sources report otherwise
value-kind: Trimeric HA Binding RLU
Please don't drop the unit; write it after the number.

Exercise: Reported Trimeric HA Binding RLU for TCN-544 (5082_A19) (antibody, V domains shown) VH: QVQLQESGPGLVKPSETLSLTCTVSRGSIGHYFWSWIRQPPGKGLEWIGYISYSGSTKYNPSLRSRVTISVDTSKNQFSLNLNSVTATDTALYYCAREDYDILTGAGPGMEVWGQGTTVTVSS VL: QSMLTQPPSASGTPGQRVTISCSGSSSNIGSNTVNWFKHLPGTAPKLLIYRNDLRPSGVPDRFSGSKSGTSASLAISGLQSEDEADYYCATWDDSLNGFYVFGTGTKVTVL : what is it?
Solution: 3070 RLU

Exercise: What do you have for TCN-553 (5261_C18) (antibody, V domains shown) VH: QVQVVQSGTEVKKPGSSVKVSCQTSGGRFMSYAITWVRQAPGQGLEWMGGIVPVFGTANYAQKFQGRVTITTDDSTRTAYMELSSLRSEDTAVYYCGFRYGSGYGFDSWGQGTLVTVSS VL: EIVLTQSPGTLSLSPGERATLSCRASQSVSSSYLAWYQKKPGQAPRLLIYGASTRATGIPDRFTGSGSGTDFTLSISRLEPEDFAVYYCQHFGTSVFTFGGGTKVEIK ?
Solution: 34700 RLU

Exercise: What do you have for TCN-546 (5089_L08) (antibody, V domains shown) VH: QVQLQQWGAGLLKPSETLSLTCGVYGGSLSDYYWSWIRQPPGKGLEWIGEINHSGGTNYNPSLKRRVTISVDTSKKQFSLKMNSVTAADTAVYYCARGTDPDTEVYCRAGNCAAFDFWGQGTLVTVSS VL: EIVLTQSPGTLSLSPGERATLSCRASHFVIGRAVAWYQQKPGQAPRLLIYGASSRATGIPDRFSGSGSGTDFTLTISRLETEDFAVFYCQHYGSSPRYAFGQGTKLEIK ?
Solution: 2940 RLU
